- test_details: qHTS assay to identify small molecule agonists or antagonists of the thyroid stimulating hormone receptor (TSHR) signaling pathway - wild type cell line counter screen (AID 1259384); note: % is set by controls: 0 for no effect and ±100 for the full control effect
- cond: HEK293 wild type, cAMP HTRF counter-screen, active compounds read high; series mostly up to 92.4 µM
Results filed as inconclusive are left out. Calls of active or inactive are those of the source. Calls come from the whole dose curve.
observable: cAMP activity change

For orientation, consider the following solved cases.
| compound | value |
| --- | --- |
| CC(C)=O | inactive |
| Cc1cc(NC(=O)C2=C(O)c3ccccc3S(=O)(=O)N2C)no1 | inactive |
| O=C(NCCc1c[nH]c2ccccc12)c1cccnc1 | inactive |
| N[C@@H](CCC(=O)N[C@@H](CS)C(=O)NCC(=O)O)C(=O)O | 2.89% [at 18.9 µM] (inactive) |
| CCC(C)NC(N)=O (configuration not stated) | inactive |

Your task in this section: give cAMP activity change for each listed record.
1. Cc1cc(C(C)(C)C)c(O)c(C)c1CC1=NCCN1
2. CCCOC(=O)C(C)O (configuration not stated)

Completion:
1. inactive
2. inactive

###

- test_details: qHTS assay to test for compound auto fluorescence at 590 nm (red) in HepG2 cells (AID 720674); note: % is set by controls: 0 for no effect and ±100 for the full control effect
- cond: HepG2 autofluorescence, red 540/590 nm, 1 h; series mostly up to 91.3 µM
Active and inactive are the calls of the source. The call rests on the fitted dose curve; in most records, active means well fitted curve in the direction sought with a large enough effect in the repeat runs; inconclusive means weak or mixed curves; inactive means flat fitted curve, though single readings scatter.
observable: fluorescence, relative to Rose Bengal

For orientation, consider the following solved cases.
| compound | value |
| --- | --- |
| COC(=O)c1ccccc1C(=O)c1ccc(OCCN2CCCCC2)cc1 | inactive |
| CC(C)CCCCOC(=O)c1ccccc1C(=O)OCCCCC(C)C | inactive |
| CC(C)c1ccc2cc(C(C)C)ccc2c1 | inactive |
| O=C(O)Cc1ccc(Cl)cc1Cl | inactive |

Your task in this section: give fluorescence, relative to Rose Bengal for each listed record.
1. CC(=O)NCCCCCC(=O)O
2. COc1ccc(-c2cc(=O)c3c(O)cc(O[C@@H]4O[C@H](CO[C@@H]5O[C@@H](C)[C@H](O)[C@@H](O)[C@H]5O)[C@@H](O)[C@H](O)[C@H]4O)cc3o2)cc1O
3. C[C@H](N)[C@H](O)c1cccc(O)c1

Completion:
1: inactive; 2: inactive; 3: 0.285% [at 18.6 µM] (inactive)

Your task in this section: give fluorescence, relative to Rose Bengal for each listed record.
1. COP(=O)(OC)OC(c1ccc(Cl)cc1)P(=O)(OC)OC (stereo unspecified)
2. CC1=C(C(=O)O)N2C(=O)[C@@H](NC(=O)[C@H](N)c3ccc(O)cc3)[C@H]2SC1
3. CC(C)(C)OC(=O)c1ccc(O)cc1
4. O=C(O)CCSSCCC(=O)O

Completion:
1: inactive; 2: 0.188% [at 18.6 µM] (inactive); 3: inactive; 4: inactive

###

- test_details: qHTS assay to identify small molecule agonists of the estrogen related receptor (ERR) signaling pathway (AID 1224820); note: % is set by controls: 0 for no effect and ±100 for the full control effect
- cond: ERR reporter cell line, luciferase agonist mode; series mostly up to 46.1 µM
- Method: National Center for Advancing Translational Sciences [NCATS] NIH Chemical Genomics Center [NCGC] U.S. Environmental Protection Agency [EPA] National Institutes of Environmental Health Sciences [NIEHS] National Toxicology Program [NTP] […] The ERR cells were dispensed at 2,000 cells/5 ul/well in 1536-well white plates using a Multidrop dispenser. […] After 30 min incubation at room temperature, the luminescence intensity in the plates was measured using a ViewLux plate reader.
Inconclusive results are not listed. Calls of active or inactive are those of the source. Calls come from the whole dose curve; as a rule, active = well fitted activation curve with a large enough effect in the repeat runs; inconclusive = weak or mixed curves; inactive = no such curve, though single readings can be large or run the other way.
observable: outcome

For orientation, consider the following solved cases.
| molecule | outcome |
| --- | --- |
| CCN(CC)CC(=O)Nc1c(C)cccc1C | inactive |
| C[C@@H](O)[C@H]1C(=O)N2C(C(=O)O)=C(SCCN=CN)C[C@H]12 | inactive |
| COc1ccc2c(c1OC)C(=O)O[C@@H]2[C@H]1c2c(cc3c(c2OC)OCO3)CCN1C | inactive |
| NCCS | inactive |
| COc1ccc(C2CNC(=O)C2)cc1OC1CCCC1 (stereo not drawn) | inactive |
| Cc1cccc(C)c1OCC(C)N (stereo not drawn) | inactive |

Your task in this section: give outcome for each listed record.
1. NC(CO)C(=O)NNCc1ccc(O)c(O)c1O (stereo not drawn)
2. CC(=O)CCCCn1c(=O)c2c(ncn2C)n(C)c1=O

Completion:
1. inactive
2. inactive
